Assay read-out log10(IC50); system under study: Acetylcholinesterase (Electrophorus electricus).
Please be aware that the numbers have been log10-transformed from IC50 in nM.

O=C(NCCCCCCNc1c2c(nc3ccccc13)CCCC2)c1cc2c([nH]c3ccccc32)c(-c2ccccc2)n1
2.10
COc1ccc(-c2nc(C(=O)NCCCCCCNc3c4c(nc5ccccc35)CCCC4)cc3c2[nH]c2ccccc23)cc1
1.99
O=C(NCCCCCCNc1c2c(nc3ccccc13)CCCC2)c1cc2c([nH]c3ccccc32)c(-c2ccc(F)cc2)n1
2.36
Cc1nc(C(=O)NCCCCCCCCNc2c3c(nc4ccccc24)CCCC3)cc2c1[nH]c1ccccc12
2.03
O=C(NCCCCCCNc1c2c(nc3ccccc13)CCCC2)c1cc2c(cn1)[nH]c1ccccc12
1.51

GET log10(IC50) where system = Acetylcholinesterase (Electrophorus electricus) and item = CC(=O)N[C@@H](Cc1c[nH]c2ccccc12)C(=O)NCCCCCCNc1c2c(nc3ccccc13)CCCC2
2.06

Report log10(IC50) from Acetylcholinesterase (Electrophorus electricus) testing of Cc1nc(C(=O)NCCNc2c3c(nc4ccccc24)CCCC3)cc2c1[nH]c1ccccc12
2.69

# assay system Acetylcholinesterase (Electrophorus electricus): give log10(IC50) of CCc1nc(C(=O)NCCCCCCNc2c3c(nc4ccccc24)CCCC3)cc2c1[nH]c1ccccc12
1.71

---

test: Retention time of the compound using CH3OH/H2O (0.1% Formic acid), 60% (v/v) of CH3OH gradient by HPLC analysis; assay type: physicochemical
Measured Retention_time by item
Entry rule: numbers only, all in min.

Example entries begin here.
CC(=O)N[C@@H](Cc1c[nH]c2ccccc12)C(=O)NCCCCCCNc1c2c(nc3ccccc13)CCCC2
4.642
Cc1nc(C(=O)NCCCCCCNc2c3c(nc4ccccc24)CCCC3)cc2c1[nH]c1ccccc12
13.685
O=C(NCCCCCCNc1c2c(nc3ccccc13)CCCC2)c1cc2c(cn1)[nH]c1ccccc12
15.899

Then there is this compound:
Kindly indicate its recorded Retention_time. Item: CC(C)(C)OC(=O)N1Cc2[nH]c3ccccc3c2C[C@H]1C(=O)NCCCCCCNc1c2c(nc3ccccc13)CCCC2
17.683

---

target: Amyloid-beta precursor protein (Homo sapiens); assay: Inhibition of amyloid beta (1 to 42) (unknown origin) self-induced aggregation at 20 uM after 46 to 48 hrs by thioflavin-T based fluorometric assay
ASSAY READOUT: inhibition (%)
Could you give me the number in %? Just the number is fine.

Cc1nc(C(=O)NCCNc2c3c(nc4ccccc24)CCCC3)cc2c1[nH]c1ccccc12
42.4
Cc1nc(C(=O)NCCCCCCNc2c3c(nc4ccccc24)CCCC3)cc2c1[nH]c1ccccc12
41.5
CC(C)(C)OC(=O)N1Cc2[nH]c3ccccc3c2C[C@H]1C(=O)NCCCCCCNc1c2c(nc3ccccc13)CCCC2
52.4
Cc1nc(C(=O)NCCCCNc2c3c(nc4ccccc24)CCCC3)cc2c1[nH]c1ccccc12
39.3
Cc1nc(C(=O)NCCCCCCCCNc2c3c(nc4ccccc24)CCCC3)cc2c1[nH]c1ccccc12
36.6
CC1N[C@H](C(=O)NCCCCCCNc2c3c(nc4ccccc24)CCCC3)Cc2c1[nH]c1ccccc21 (some centres undefined)
48.6
O=C(NCCCCCCNc1c2c(nc3ccccc13)CCCC2)c1cc2c([nH]c3ccccc32)c(-c2ccc(F)cc2)n1
29.7
O=C(NCCCCCCNc1c2c(nc3ccccc13)CCCC2)c1cc2c([nH]c3ccccc32)c(-c2ccccc2)n1
26.1

Then this molecule:
Identify measured inhibition corresponding to COC(=O)c1cc2c(cn1)[nH]c1ccccc12 [BETA-CCM]
22.1

---

pIC50, Acetylcholinesterase (Electrophorus electricus, UniProt O42275): measured values
Note on pIC50: it is the negative log10 of concentration, concentration in mol/L.

Give Acetylcholinesterase (Electrophorus electricus, UniProt O42275) pIC50 for the following compound: CC1N[C@H](C(=O)NCCCCCCNc2c3c(nc4ccccc24)CCCC3)Cc2c1[nH]c1ccccc21 (stereo partly specified)
6.81

Look up and report measured pIC50 (Acetylcholinesterase (Electrophorus electricus, UniProt O42275)) for the following compound: CC(C)(C)OC(=O)N[C@@H](Cc1c[nH]c2ccccc12)C(=O)NCCCCCCNc1c2c(nc3ccccc13)CCCC2
7.17

State measured pIC50 of the compound Cc1nc(C(=O)NCCCCCCNc2c3c(nc4ccccc24)CCCC3)cc2c1[nH]c1ccccc12 with Acetylcholinesterase (Electrophorus electricus, UniProt O42275).
Sequence (O42275 whole entry): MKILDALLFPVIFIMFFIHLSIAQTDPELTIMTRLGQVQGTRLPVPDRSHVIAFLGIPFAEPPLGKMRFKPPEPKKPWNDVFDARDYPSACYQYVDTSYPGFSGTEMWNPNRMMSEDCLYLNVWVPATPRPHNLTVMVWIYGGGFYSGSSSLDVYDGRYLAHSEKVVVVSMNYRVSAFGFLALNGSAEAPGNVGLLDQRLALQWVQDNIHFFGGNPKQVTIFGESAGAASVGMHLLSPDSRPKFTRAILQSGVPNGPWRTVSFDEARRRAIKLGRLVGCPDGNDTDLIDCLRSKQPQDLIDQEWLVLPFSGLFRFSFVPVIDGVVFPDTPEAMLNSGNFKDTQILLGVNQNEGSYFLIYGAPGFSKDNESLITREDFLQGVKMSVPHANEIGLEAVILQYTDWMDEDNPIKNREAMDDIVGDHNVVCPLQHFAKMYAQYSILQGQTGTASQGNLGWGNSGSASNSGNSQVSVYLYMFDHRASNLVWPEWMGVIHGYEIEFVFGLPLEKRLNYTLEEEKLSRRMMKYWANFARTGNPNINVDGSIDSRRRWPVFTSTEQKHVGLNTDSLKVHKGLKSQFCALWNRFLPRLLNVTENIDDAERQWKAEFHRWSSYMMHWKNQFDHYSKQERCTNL
7.39

Send back Acetylcholinesterase (Electrophorus electricus, UniProt O42275) pIC50 of COC(=O)c1cc2c(cn1)[nH]c1ccccc12 [BETA-CCM] only.
4.20

State, for Acetylcholinesterase (Electrophorus electricus, UniProt O42275), measured pIC50 of the compound listed here: CC1c2[nH]c3ccccc3c2C[C@@H](C(=O)NCCCCCCNc2c3c(nc4ccccc24)CCCC3)N1C(=O)OC(C)(C)C (stereo partly specified)
6.41

Quote pIC50 with test system Acetylcholinesterase (Electrophorus electricus, UniProt O42275) for Cc1nc(C(=O)NCCCCNc2c3c(nc4ccccc24)CCCC3)cc2c1[nH]c1ccccc12
6.57

---

molecular target: Acetylcholinesterase (Homo sapiens, UniProt P22303)
Sequence (P22303 whole entry): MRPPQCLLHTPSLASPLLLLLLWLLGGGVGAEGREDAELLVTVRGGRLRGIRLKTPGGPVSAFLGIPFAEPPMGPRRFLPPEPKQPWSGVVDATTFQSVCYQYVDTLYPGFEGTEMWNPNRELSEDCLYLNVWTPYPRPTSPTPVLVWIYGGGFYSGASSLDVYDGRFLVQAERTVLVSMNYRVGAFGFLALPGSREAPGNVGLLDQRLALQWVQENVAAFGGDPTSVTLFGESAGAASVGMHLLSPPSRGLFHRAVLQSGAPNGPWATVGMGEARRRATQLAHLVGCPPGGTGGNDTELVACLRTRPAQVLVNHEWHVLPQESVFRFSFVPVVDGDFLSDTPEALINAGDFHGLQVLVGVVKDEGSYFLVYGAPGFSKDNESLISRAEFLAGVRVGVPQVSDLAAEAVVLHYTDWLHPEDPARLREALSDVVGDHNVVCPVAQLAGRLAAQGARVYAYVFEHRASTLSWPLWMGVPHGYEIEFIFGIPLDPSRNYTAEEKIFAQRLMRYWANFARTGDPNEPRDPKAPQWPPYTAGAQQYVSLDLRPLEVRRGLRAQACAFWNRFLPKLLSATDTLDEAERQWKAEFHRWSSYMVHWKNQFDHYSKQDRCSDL
ASSAY READOUT: pIC50
Reminder that pIC50 is minus the log10 of a molar concentration.

N[C@@H](Cc1c[nH]c2ccccc12)C(=O)NCCCCCCNc1c2c(nc3ccccc13)CCCC2
7.02
COc1ccc(-c2nc(C(=O)NCCCCCCNc3c4c(nc5ccccc35)CCCC4)cc3c2[nH]c2ccccc23)cc1
6.83
O=C(NCCCCCCNc1c2c(nc3ccccc13)CCCC2)c1cc2c([nH]c3ccccc32)c(-c2ccc(F)cc2)n1
6.51
Cc1nc(C(=O)NCCCCNc2c3c(nc4ccccc24)CCCC3)cc2c1[nH]c1ccccc12
6.49
CC1c2[nH]c3ccccc3c2C[C@@H](C(=O)NCCCCCCNc2c3c(nc4ccccc24)CCCC3)N1C(=O)OC(C)(C)C (stereo not given in full)
6.28
CC1N[C@H](C(=O)NCCCCCCNc2c3c(nc4ccccc24)CCCC3)Cc2c1[nH]c1ccccc21 (stereo not given in full)
6.69
Cc1nc(C(=O)NCCCCCCNc2c3c(nc4ccccc24)CCCC3)cc2c1[nH]c1ccccc12
7.03
O=C(NCCCCCCNc1c2c(nc3ccccc13)CCCC2)c1cc2c(cn1)[nH]c1ccccc12
7.04
O=C(NCCCCCCNc1c2c(nc3ccccc13)CCCC2)[C@@H]1Cc2c([nH]c3ccccc23)CN1
7.20

Report measured pIC50 on Acetylcholinesterase (Homo sapiens, UniProt P22303); entry: CC(C)(C)OC(=O)N1Cc2[nH]c3ccccc3c2C[C@H]1C(=O)NCCCCCCNc1c2c(nc3ccccc13)CCCC2
6.73

---

# Papp listing for each entry below
experiment: in vitro; conditions: PAMPA
Write the value in ×10⁻⁶ cm/s as a bare number.

Example entries begin here.
CCc1nc(C(=O)NCCCCCCNc2c3c(nc4ccccc24)CCCC3)cc2c1[nH]c1ccccc12
4.97
O=C(NCCCCCCNc1c2c(nc3ccccc13)CCCC2)[C@@H]1Cc2c([nH]c3ccccc23)CN1
5.6
CN1C(C(=O)Nc2ccccn2)=C(O)c2ccccc2S1(=O)=O
1.2

Quote Papp reported for O=C(NCCCCCCNc1c2c(nc3ccccc13)CCCC2)c1cc2c(cn1)[nH]c1ccccc12 please.
5.36

---

molecular target: Amyloid-beta precursor protein (Homo sapiens) (UniProt P05067); assay: Inhibition of amyloid beta (1 to 42) (unknown origin) self-induced aggregation at 20 uM after 46 to 48 hrs by thioflavin-T based fluorometric assay
Sequence (P05067 whole entry): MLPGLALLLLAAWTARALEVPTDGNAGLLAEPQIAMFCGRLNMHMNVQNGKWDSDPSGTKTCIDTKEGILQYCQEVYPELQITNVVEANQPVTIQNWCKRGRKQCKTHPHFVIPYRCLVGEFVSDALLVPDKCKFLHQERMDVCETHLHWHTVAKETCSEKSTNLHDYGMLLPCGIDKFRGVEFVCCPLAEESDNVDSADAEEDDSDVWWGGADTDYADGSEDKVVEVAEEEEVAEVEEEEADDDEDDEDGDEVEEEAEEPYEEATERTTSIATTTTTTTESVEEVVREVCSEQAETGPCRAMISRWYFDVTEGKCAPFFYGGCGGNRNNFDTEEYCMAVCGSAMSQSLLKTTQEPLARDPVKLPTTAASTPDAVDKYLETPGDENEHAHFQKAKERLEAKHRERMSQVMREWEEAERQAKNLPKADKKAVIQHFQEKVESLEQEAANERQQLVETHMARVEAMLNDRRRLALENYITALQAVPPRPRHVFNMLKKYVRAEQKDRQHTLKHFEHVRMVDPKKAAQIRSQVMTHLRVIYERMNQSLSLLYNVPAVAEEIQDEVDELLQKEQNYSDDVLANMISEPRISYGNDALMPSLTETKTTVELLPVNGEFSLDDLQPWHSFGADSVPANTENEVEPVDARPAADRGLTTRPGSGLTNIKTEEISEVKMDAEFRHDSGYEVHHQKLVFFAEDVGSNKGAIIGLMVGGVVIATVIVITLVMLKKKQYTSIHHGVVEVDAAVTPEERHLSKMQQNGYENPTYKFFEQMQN
The reader will find reported inhibition values listed item by item below.

# annotated cases, reported inhibition shown
COc1ccc(-c2nc(C(=O)NCCCCCCNc3c4c(nc5ccccc35)CCCC4)cc3c2[nH]c2ccccc23)cc1
25.2%
CC1c2[nH]c3ccccc3c2C[C@@H](C(=O)NCCCCCCNc2c3c(nc4ccccc24)CCCC3)N1C(=O)OC(C)(C)C (some centres not stated)
42.3%
N[C@@H](Cc1c[nH]c2ccccc12)C(=O)NCCCCCCNc1c2c(nc3ccccc13)CCCC2
66.3%
O=C(NCCCCCCNc1c2c(nc3ccccc13)CCCC2)[C@@H]1Cc2c([nH]c3ccccc23)CN1
65.8%
CC(=O)N[C@@H](Cc1c[nH]c2ccccc12)C(=O)NCCCCCCNc1c2c(nc3ccccc13)CCCC2
61.4%
CCc1nc(C(=O)NCCCCCCNc2c3c(nc4ccccc24)CCCC3)cc2c1[nH]c1ccccc12
44.6%

Now let's try a different one.
Determine its reported inhibition: CC(C)(C)OC(=O)N[C@@H](Cc1c[nH]c2ccccc12)C(=O)NCCCCCCNc1c2c(nc3ccccc13)CCCC2
62.1%
